All figures here come from patent US12410160B2.

Record form. Attribute: pIC50. Fill in for each entry.
study-system: human KHK-A (Homo sapiens (Human))
assay-summary: KHK Biochemical Assay (IC50), ADP-Glo, KHK-A
condition-details: ADP-Glo; average of at least two separate assays
Lab note — pIC50 values are minus log10 of concentrations in M.

Using human KHK-A (Homo sapiens (Human)) as the test system, report measured pIC50 of C[C@H]1CCN1c1nc2c(c(-c3cccs3)n1)CCC2 .
6.93

Using human KHK-A (Homo sapiens (Human)) as the test system, report measured pIC50 of CC1=C(c2nc3c(c(-c4ccc(C(N)=O)cc4)n2)CCC3)CCC1=O .
5.32

Using human KHK-A (Homo sapiens (Human)) as the test system, report measured pIC50 of C[C@H]1CCN1c1nc2c(c(-c3ccc4c(c3)CNC4=O)n1)CCC2 .
7.48

Using human KHK-A (Homo sapiens (Human)) as the test system, report measured pIC50 of C[C@H]1CCN1c1nc2c(c(-c3cccc([C@H]4C[C@@H]4c4nn[nH]n4)c3)n1)CCC2 (relative stereo) .
7.21

Using human KHK-A (Homo sapiens (Human)) as the test system, report measured pIC50 of C[C@H]1CCN1c1nc2c(c(-c3cc4c(C(N)=O)cccc4[nH]3)n1)CCC2 .
7.00

Using human KHK-A (Homo sapiens (Human)) as the test system, report measured pIC50 of C[C@H]1[C@H](F)CN1c1nc2c(c(-c3ccc(C(N)=O)cc3)n1)CCC2 .
7.83

Using human KHK-A (Homo sapiens (Human)) as the test system, report measured pIC50 of C[C@H]1CCN1c1nc2c(c(-c3ccc(CO)cc3)n1)CCC2 .
7.32

Using human KHK-A (Homo sapiens (Human)) as the test system, report measured pIC50 of C[C@H]1CCN1c1nc2c(c(-c3ccc(CS(N)(=O)=O)cc3)n1)CCC2 .
7.01

Using human KHK-A (Homo sapiens (Human)) as the test system, report measured pIC50 of C[C@H]1CCN1c1nc2c(c(-c3ccc4c(=O)[nH]c(=O)n(C)c4c3)n1)CCC2 .
7.74

Using human KHK-A (Homo sapiens (Human)) as the test system, report measured pIC50 of C[C@@H]1Oc2cc(-c3nc(N4CC[C@@H]4C)nc4c3CCC4)ccc2[C@@H]1NS(C)(=O)=O .
7.35

Using human KHK-A (Homo sapiens (Human)) as the test system, report measured pIC50 of C[C@H]1CCN1c1nc2c(c(-c3ccc4c(c3)C[C@@H]3[C@@H](C(N)=O)[C@H]43)n1)CCC2 (relative stereo) .
6.67

Using human KHK-A (Homo sapiens (Human)) as the test system, report measured pIC50 of Cc1cc(-c2nc(N3CC[C@@H]3C)nc3c2CCC3)ccc1C(=O)NCCO .
7.15

Using human KHK-A (Homo sapiens (Human)) as the test system, report measured pIC50 of C[C@H]1CCN1c1nc2c(c(-c3cccc(CN)c3)n1)CCC2 .
7.61

Using human KHK-A (Homo sapiens (Human)) as the test system, report measured pIC50 of C[C@H]1CCN1c1nc2c(c(-c3ccc(C(N)=O)cc3)n1)CC2 .
6.27

Using human KHK-A (Homo sapiens (Human)) as the test system, report measured pIC50 of COC(=O)NC1COc2cc(-c3nc(N4C[C@@H](O)[C@@H]4C)nc4c3CCC4(F)F)cc(OC)c21 (some centres unmarked) .
7.04

Using human KHK-A (Homo sapiens (Human)) as the test system, report measured pIC50 of C[C@H]1CCN1c1nc2c(c(-c3ccc4c(=O)[nH]cnc4c3)n1)CCC2 .
7.97

Using human KHK-A (Homo sapiens (Human)) as the test system, report measured pIC50 of C[C@H]1CCN1c1nc(-c2ccccc2)c2c(n1)C1CC1C2 (mixture of isomers) .
5.72

---

Record form. Attribute: pIC50. Fill in for each entry.
study-system: UniProt P50053
assay-summary: KHK Biochemical Assay (IC50), ADP-Glo, KHK-A
condition-details: ADP-Glo; average of at least two separate assays
Lab note — pIC50 values are minus log10 of concentrations in M.

Quick one: give measured pIC50 for C[C@H]1CCN1c1nc2c(c(-c3cccc(C(=O)NCCS(N)(=O)=O)c3)n1)CCC2 [Example 219]
7.76

Quick one: give measured pIC50 for C[C@H]1CCN1c1nc2c(c(-c3ccc(OCc4ccccc4)c(S(C)(=N)=O)c3)n1)CCC2 (some centres unmarked) [Example 839]
7.80

Quick one: give measured pIC50 for C[C@H]1CCN1c1nc2c(c(-c3ccc(S(=N)(N)=O)cc3)n1)CCC2 (some centres unmarked) [Example 874]
7.05

Quick one: give measured pIC50 for C[C@H]1CCN1c1nc2c(c(-c3ccc4c(c3)C3(CC4)CNC(=O)C3)n1)CCC2 (some centres unmarked) [Example 875]
7.17

Quick one: give measured pIC50 for C[C@H]1[C@H](O)CN1c1nc2c(c(-c3ccc(CNS(C)(=O)=O)s3)n1)CCC2 [Example 377]
7.57

Quick one: give measured pIC50 for COC1Cc2cc(-c3nc(N4CC[C@@H]4C)nc4c3CCC4)ccc2C1NS(C)(=O)=O (some centres unmarked) [Example 892]
6.48

Quick one: give measured pIC50 for C[C@H]1CCN1c1nc2c(c(-c3ccc(C(O)CF)cc3)n1)CCC2 (some centres unmarked) [Example 257]
6.70

Quick one: give measured pIC50 for C[C@H]1CCN1c1nc2c(c(-c3ccc(C4(N)CC4)cc3)n1)CCC2 [Example 295]
8.59

---

study-system: human KHK-A (Homo sapiens (Human), UniProt P50053)
Sequence (P50053 other isoform, or with tags, fused parts or gaps): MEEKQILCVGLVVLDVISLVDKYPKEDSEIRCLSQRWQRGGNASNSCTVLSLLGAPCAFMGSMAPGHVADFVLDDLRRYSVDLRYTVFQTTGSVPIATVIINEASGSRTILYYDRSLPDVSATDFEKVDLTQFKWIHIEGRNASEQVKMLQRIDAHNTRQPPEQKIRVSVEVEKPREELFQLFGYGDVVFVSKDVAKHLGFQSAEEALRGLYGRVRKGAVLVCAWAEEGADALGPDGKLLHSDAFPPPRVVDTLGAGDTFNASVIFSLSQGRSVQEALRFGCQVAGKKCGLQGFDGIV
assay-summary: KHK Biochemical Assay (IC50), ADP-Glo, KHK-A
condition-details: average of at least two separate assays
readout-label: pIC50
Lab note — pIC50 values are minus log10 of concentrations in M.

Quick one: give measured pIC50 for NC1(c2ccc(-c3nc(N4CC[C@@H]4C(F)(F)F)nc4c3CCC4(F)F)cc2F)COC1
8.57

Quick one: give measured pIC50 for C[C@H]1[C@H](F)CN1c1nc(-c2ccc(C3(N)COC3)cc2)c2c(n1)C(F)(F)CC2
8.28

Quick one: give measured pIC50 for C[C@H]1[C@H](O)CN1c1nc(-c2ccc3c(c2)CC[C@@]32CCC(=O)N2)c2c(n1)C(F)(F)CC2 (single isomer, unassigned)
7.45

Quick one: give measured pIC50 for C[C@H]1CCN1c1nc2c(c(-c3ccc4c(c3)C3C(C4)C3C(=O)O)n1)CCC2 (stereo partly shown)
7.42

Quick one: give measured pIC50 for C[C@H]1[C@H](O)CN1c1nc(-c2ccc3c(c2)OCC32CN(CCO)C(=O)N2)c2c(n1)C(F)(F)CC2 (stereo partly shown)
7.79

Quick one: give measured pIC50 for CCN1C(=O)N[C@@]2(COc3cc(-c4nc(N5C[C@@H](O)[C@@H]5C)nc5c4CCC5(F)F)ccc32)C1=O (single isomer, unassigned)
7.32

---

study-system: UniProt P50053
assay-summary: KHK Biochemical Assay (IC50), ADP-Glo, KHK-C
condition-details: ADP-Glo; average of at least two separate assays
pIC50: −log10 of the molar value.
Would you mind labelling by pIC50? At or over 7 is Yes, under is No.

Does C[C@H]1CCN1c1nc2c(c(-c3ccc(C(N)C(F)(F)F)cc3)n1)CCC2 (stereo in doubt) [Example 269] have a reported pIC50 of at least 7?
No

Does C[C@H]1CCN1c1nc2c(c(-c3cccc(C(=O)Nc4cc[nH]n4)c3)n1)CCC2 [Example 65] have a reported pIC50 of at least 7?
No

Does C[C@H]1CCN1c1nc2c(c(-c3ccc(C(=O)N(C)C)cc3)n1)CCC2 [Example 293] have a reported pIC50 of at least 7?
No

Does C[C@H]1[C@H](F)CN1c1nc2c(c(-c3ccc(C(N)=O)s3)n1)CCC2 [Example 58] have a reported pIC50 of at least 7?
Yes

Does NC1(c2ccc(-c3nc(N4CC[C@@H]4C(F)F)nc4c3CCC4(F)F)cc2)CS(=O)(=O)C1 (single isomer, unassigned) [Example 800] have a reported pIC50 of at least 7?
Yes

---

Record form. Attribute: pIC50. Fill in for each entry.
study-system: UniProt P50053
assay-summary: KHK Biochemical Assay (IC50), ADP-Glo, KHK-A
condition-details: average of at least two separate assays
Lab note — pIC50 values are minus log10 of concentrations in M.

Quick one: give measured pIC50 for CCCN1C(=O)NC2(COc3cc(-c4nc(N5C[C@@H](O)[C@@H]5C)nc5c4CCC5(F)F)ccc32)C1=O (stereo partly shown)
7.33

Quick one: give measured pIC50 for C[C@H]1[C@H](O)CN1c1nc(-c2ccc(OC(F)F)c([S@@](C)(=N)=O)c2)c2c(n1)C(F)(F)CC2 (single isomer, unassigned)
8.36

Quick one: give measured pIC50 for C[C@H]1CCN1c1nc2c(c(-c3ccc4c(c3)[C@]3(C[C@@H]3C#N)C(=O)N4)n1)CCC2 (mixture of isomers)
7.18

Quick one: give measured pIC50 for C[C@@H]1N(c2nc(-c3ccc4c(c3)OC[C@@H]4NS(C)(=O)=O)c3c(n2)C(F)(F)CC3)C[C@@]1(C)O
7.28

Quick one: give measured pIC50 for C[C@H]1C[C@H](C)N1c1nc(-c2ccc(C3(N)COC3)cc2)c2c(n1)C(F)(F)CC2
8.00

Quick one: give measured pIC50 for CCN1C(=O)N[C@]2(COc3cc(-c4nc(N5C[C@@H](O)[C@@H]5C)nc5c4CCC5(F)F)ccc32)C1=O (single isomer, unassigned)
8.07

Quick one: give measured pIC50 for C[C@H]1[C@H](F)CN1c1nc(-c2ccc(C(N)CS(C)(=O)=O)cc2)c2c(n1)C(F)(F)CC2 (stereo partly shown)
8.07
